# system: T1, mfNPR1-mFc:hBNP complex (monkey; human, UniProt P16860 103-134)
# T1 construct: Receptor-Fc pre-complexed with 10-fold hBNP
# experiment: SPR Biacore, mAb captured by anti-human Fc, 37C
100 nM Ag Bound (RU) for assorted binders
Number only, in RU; omit the unit.

binder | unit.info | measured.number
mAb22035 (antibody, human IgG4, V domains shown) VH: EVQLVESGGGLVQPGRSLRLSCAASGFTFDDYAMHWVRQAPGKGLEWVSGISWNSGTIGYADSVKGRFTMSRDNAKNSLYLQMNSLRPEDTALYYCAKDMGVSLALWGAFDIWGQGTMVTVSS VL: DIQMTQSPSSLSASVGDKVTITCRASQNIRTYLNWYQQKPGKAPKVLISTASSLQSGVPSRFSGSGSGTDFTLTISSLQPEDFAVFYCQQSFGIPRTFGQGTKVEIK | RU | 286
mAb25502 (antibody, human IgG4, V domains shown) VH: QLQLQESGPGLVKPSETLSLTCTVSGGSISSSSYYWGWIRQPPGKGLEWIGSIYYSGSPYYIPSLKSRVTISVDTSKNQFSLKLSSVTAADTAMYYCARQGRGIARAGPFDYWGQGTLVTVSS VL: DIQMTQSPSSLSASVGDRVTITCRASQGISNYLAWYQEKPGKVPKLLIYAASTLQSGVPSRFSGSGSGTDFTLTITSLQSEDVATYYCQKYNSAPPWTFGQGTKVEIK | RU | 139
mAb25497 (antibody, human IgG4, V domains shown) VH: QVQLVQSGAEVKEPGASVKVSCKASGYTFTDYYIHWVRQAPGQGLEWMGWINLNSGGKNHAQKFQGRVTVTSDTSINTAYIELGRLRGDDTAVYYCSRGGGSHYYYYYHGMDVWGQGTTVTVSS VL: DIQMTQSPSSLSASVGDRITITCRASHSIDSYLNWYQQKPGKAPKLLIYPASTLQSGVPSRFSGSGSGTDFTLTISSLQPEDSAIYYCQQSYSTPLTFGGGTKVEIK | RU | 100

We now examine a further binder.
Req: Field request: 100 nM Ag Bound (RU) | item: mAb25479 (antibody, human IgG4, V domains shown) VH: QVQLVQSGAEVKKPGASVKVSCKASGYTFTGYYIHWVRQAPGQGLEWMGWINPNSIGTNYAQKFQGRVTLTRDTSISTAYMELSSLRSDDTAVYYCARGGSSSYYYYYYGMDVWGQGTTVTVSS VL: DIQMTQSPSSLSASVGDRVTITCRASQSIDNYLNWYQQKPGKAPKLLIYVASSLQSGVPSRFSGSGSGTDFTLTISSLQPEDFATYYCQQSYSTPLTFGGGTKVEIK
Resp: 135
